pIC50: −log10 of the molar value.
This section lists pIC50 readings for Carnitine O-palmitoyltransferase 2, mitochondrial (Homo sapiens, UniProt P23786).
measured-metric: pIC50

(a) COc1ccc(Cl)cc1S(=O)(=O)c1cn(CCCC(=O)O)c2ccc(C(=O)Nc3ccccc3)cc12
(b) O=C(Cn1cc(-c2ccccc2)c2ccccc21)Nc1ccc(C(=O)O)cc1
IN: Would you let me know which has the greater pIC50 value, a or b ? Which one? Tell me its label.
OUT: b
(b: 4.81, a: 4.41)

---

Assay: SUPPLEMENTARY: Lipophilicity (log D) Determination by high-throughput shake-flask
Type: physicochemical
Conditions: octanol/water
measured-metric: logD

Some compounds with known logD results, for comparison:
CC(=O)Nc1cc(-c2nc([C@H]3CCCCN3C(=O)COc3ccccc3)no2)ccn1 : 2.54
Nc1ccc(-c2noc([C@H]3CCCCN3C(=O)COc3ccccc3)n2)cn1 : 2.62
O=C(O)c1ccc(NC(=O)c2ccc(Cl)c(NS(=O)(=O)c3cc(Cl)cc(Cl)c3)c2)cc1 : 0.49
COc1ccc(Cl)cc1S(=O)(=O)N1CCc2c(C)cc(C(=O)Nc3ccc(CC(=O)O)cc3)cc21 : 0.62
COc1ccc(Cl)cc1S(=O)(=O)N1CC(C(=O)O)Oc2ccc(C(=O)Nc3ccccc3)cc21 (stereo not drawn) : -0.45
NC(=O)c1cn2ccc(-c3noc([C@H]4CCCCN4C(=O)COc4ccccc4)n3)cc2n1 : 2.79
COc1ccc(Cl)cc1S(=O)(=O)N1CCSc2ccc(C(=O)Nc3ccc(CC(=O)O)cc3)cc21 : 0.61
COc1ccc(Cl)cc1S(=O)(=O)N1CCc2c(C)cc(C(=O)Nc3ccc(C(=O)O)c(F)c3)cc21 : 0.77
CN1CCN(C(=O)COc2ccccc2)[C@@H](c2nc(-c3ccc4[nH]nnc4c3)no2)C1 : 1.86
Cc1cc(C)cc(S(=O)(=O)N2CCS(=O)(=O)c3ccc(C(=O)Nc4ccc(C(=O)O)cc4)cc32)c1 : 0.55

(A) Cc1sc([C@H]2CCCCN2C(=O)COc2ccccc2)nc1-c1cccc(C(=O)O)c1
(B) CCN(CC)C(=O)c1cncc(-c2noc([C@H]3CCCCN3C(=O)COc3ccccc3)n2)c1
IN: Would you let me know which has the greater logD value, A or B ? Which one? Tell me its label.
OUT: B
(B: 2.5, A: 0.73)

(P) O=C(O)c1cccc(-c2nc([C@H]3CCCCN3C(=O)COc3ccccc3)cs2)c1
(Q) COc1ccc(Cl)cc1S(=O)(=O)c1cn(C)c2ccc(C(=O)Nc3ccc(C(=O)O)cc3)cc12
IN: Would you let me know which has the greater logD value, P or Q ? Which one? Tell me its label.
OUT: Q
(Q: 2.36, P: 0.92)

(1) COc1ccc(Cl)cc1S(=O)(=O)c1c[nH]c2ccc(C(=O)Nc3ccc(C(=O)O)cc3)cc12
(2) COc1ccc(-c2noc(C3C[S+]([O-])CCN3C(=O)COc3ccccc3)n2)cc1 (stereo not drawn)
IN: Would you let me know which has the greater logD value, 1 or 2 ? Which one? Tell me its label.
OUT: 2
(2: 2.19, 1: 0.84)

Cited source: ChEMBL document CHEMBL3431459
